Hey, just so you know, these numbers are from the supplement of paper PMC11208160.

Catalogue of recombinant barcode read abundance (log10) values
- Assay overview: recombinant barcode read abundance after kanamycin selection (control-corrected) (log10(CPM+1)); higher = more efficient recombination; sequences stand for … in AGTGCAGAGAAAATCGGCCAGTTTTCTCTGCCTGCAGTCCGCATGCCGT…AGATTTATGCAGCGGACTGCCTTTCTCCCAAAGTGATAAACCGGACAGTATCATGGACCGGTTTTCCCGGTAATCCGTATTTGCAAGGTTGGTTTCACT; site = the 11-nt target;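 note: IS621 recombinase and bridge RNA in Escherichia coli cells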
Enter the number alone.

Query: Request the reported recombinant barcode read abundance (log10) associated with CAGGTGCCTTGGGTTCTAACCTGTTGCCT (site CGGGTGCCTAG)
Result: 0.122

Query: Request the reported recombinant barcode read abundance (log10) associated with TATACTGCTTGGGTTCTAACCTGTTGCCT (site TATACTACTAG)
Result: 0.0148

Query: Request the reported recombinant barcode read abundance (log10) associated with CTCATATCTTGGGTTCTAACCTGTTGCTT (site GAATGGACTTC)
Result: 0.0724

Query: Request the reported recombinant barcode read abundance (log10) associated with CTAAGGTCTTGGGTTCTAACCTGTTGCAT (site CTAAGGTCTAT)
Result: 2.33

Query: Request the reported recombinant barcode read abundance (log10) associated with ACAGCCGCTTGGGTTCTAACCTGTTGCCT (site ACAGGCGCTAG)
Result: 0.108

***
Query: Request the reported recombinant barcode read abundance (log10) associated with TAGAAGACTTGGGTTCTAACCTGTTGCTG (site TAGAAGACTCA)
Result: 2.38

Query: Request the reported recombinant barcode read abundance (log10) associated with GAGCTACCTTGGGTTCTAACCTGTTGCCC (site GAGCTACCTCG)
Result: 0.199

Query: Request the reported recombinant barcode read abundance (log10) associated with GGTCGTGCTTGGGTTCTAACCTGTTGCCT (site GGTCGCGCTAG)
Result: 0

Query: Request the reported recombinant barcode read abundance (log10) associated with TATGGGTCTTGGGTTCTAACCTGTTGCCT (site TGTGGGTCTAG)
Result: 0.209

Query: Request the reported recombinant barcode read abundance (log10) associated with GACACGCCTTGGGTTCTAACCTGTTGCCT (site GACACGCCTAC)
Result: 0.0669

Query: Request the reported recombinant barcode read abundance (log10) associated with GGTCTGCCTTGGGTTCTAACCTGTTGCCT (site AGTCTGCCTAG)
Result: 0.171

Query: Request the reported recombinant barcode read abundance (log10) associated with CACGAGACTTGGGTTCTAACCTGTTGCCT (site CACGAGTCTAG)
Result: 0.424

Query: Request the reported recombinant barcode read abundance (log10) associated with GCGACTCCTTGGGTTCTAACCTGTTGCTT (site GCGACTCCTAG)
Result: 0.0916

Query: Request the reported recombinant barcode read abundance (log10) associated with AATTCAGCTTGGGTTCTAACCTGTTGCCT (site AATTGAGCTAG)
Result: 0.164

Query: Request the reported recombinant barcode read abundance (log10) associated with TAGAACTCTTGGGTTCTAACCTGTTGCCA (site TAGAACTCTCG)
Result: 0.23

Query: Request the reported recombinant barcode read abundance (log10) associated with CTCCTCCCTTGGGTTCTAACCTGTTGCCT (site CTCCTCCCTAG)
Result: 1.29

Query: Request the reported recombinant barcode read abundance (log10) associated with CAAAGGGCTTGGGTTCTAACCTGTTGCAG (site CAAAAGGCTCT)
Result: 1.17

Query: Request the reported recombinant barcode read abundance (log10) associated with CACATCTCTTGGGTTCTAACCTGTTGCCT (site CACATCTCTAG)
Result: 1.38

Query: Request the reported recombinant barcode read abundance (log10) associated with AGCGAATCTTGGGTTCTAACCTGTTGCCG (site GAGCGTCCTTA)
Result: 0.232

Query: Request the reported recombinant barcode read abundance (log10) associated with CATAGACCTTGGGTTCTAACCTGTTGCAT (site CATAGCCCTAT)
Result: 0.0625

Query: Request the reported recombinant barcode read abundance (log10) associated with TCGTTCGCTTGGGTTCTAACCTGTTGCCG (site TCGTTCGCTCG)
Result: 0.0881

Query: Request the reported recombinant barcode read abundance (log10) associated with ACCCAATCTTGGGTTCTAACCTGTTGCCT (site ACCCAACCTAG)
Result: 0.0978

Query: Request the reported recombinant barcode read abundance (log10) associated with TAGGTGCCTTGGGTTCTAACCTGTTGCAT (site TAGGTCCCTAT)
Result: 0.0424

Query: Request the reported recombinant barcode read abundance (log10) associated with AGTCTCCCTTGGGTTCTAACCTGTTGCCT (site AGGCTCCCTAG)
Result: 0.0232

Query: Request the reported recombinant barcode read abundance (log10) associated with CCGTCACCTTGGGTTCTAACCTGTTGCCT (site GCGTCACCTAG)
Result: 0.0965

Query: Request the reported recombinant barcode read abundance (log10) associated with CAGGTACCTTGGGTTCTAACCTGTTGCAG (site CAGGTACCTCT)
Result: 3.12

Query: Request the reported recombinant barcode read abundance (log10) associated with TATTTGTCTTGGGTTCTAACCTGTTGCTA (site TATTTGTCTTA)
Result: 0.486

Query: Request the reported recombinant barcode read abundance (log10) associated with ACATATACTTGGGTTCTAACCTGTTGCTT (site CGTAGCCCTCC)
Result: 0.125

* * *

- Assay overview: recombinant barcode read abundance after kanamycin selection (control-corrected) (log10(CPM+1)); higher = more efficient recombination; sequences stand for … in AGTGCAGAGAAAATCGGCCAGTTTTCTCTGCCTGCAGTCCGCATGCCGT…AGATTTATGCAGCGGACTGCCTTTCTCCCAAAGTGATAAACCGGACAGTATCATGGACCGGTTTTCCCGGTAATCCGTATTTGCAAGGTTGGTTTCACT; site = the 11-nt target
# recombinant barcode read abundance (log10) >= 0.3 gives YES, anything below gives NO

Please review the following examples before continuing.
Query: Does the reported recombinant barcode read abundance (log10) for CGGGAAGCTTGGGTTCTAACCTGTTGCCT (site CGGGAAGCTAG) fall at or above the 0.3 mark?
Result: YES

Query: Does the reported recombinant barcode read abundance (log10) for CCGAATGCTTGGGTTCTAACCTGTTGCCT (site CCGGATGCTAG) fall at or above the 0.3 mark?
Result: NO

Query: Does the reported recombinant barcode read abundance (log10) for ACCAATTCTTGGGTTCTAACCTGTTGCCT (site ACCAATACTAG) fall at or above the 0.3 mark?
Result: NO

Query: Does the reported recombinant barcode read abundance (log10) for TCCCAGTCTTGGGTTCTAACCTGTTGCAT (site TCCCAGTCTAA) fall at or above the 0.3 mark?
Result: YES

Query: Does the reported recombinant barcode read abundance (log10) for CTCAATTCTTGGGTTCTAACCTGTTGCAA (site CTCAATTCTTT) fall at or above the 0.3 mark?
Result: NO

Query: Does the reported recombinant barcode read abundance (log10) for TAGGACGCTTGGGTTCTAACCTGTTGCCT (site TAGGACGCTAG) fall at or above the 0.3 mark?
Result: YES

Query: Does the reported recombinant barcode read abundance (log10) for CAGAGTCCTTGGGTTCTAACCTGTTGCTT (site CATAGTCCTAG) fall at or above the 0.3 mark?
Result: NO

Query: Does the reported recombinant barcode read abundance (log10) for CGTCCTTCTTGGGTTCTAACCTGTTGCCT (site AGTCCTTCTAT) fall at or above the 0.3 mark?
Result: YES

Query: Does the reported recombinant barcode read abundance (log10) for CTTACTACTTGGGTTCTAACCTGTTGCCT (site CTTACTACTAG) fall at or above the 0.3 mark?
Result: NO

Query: Does the reported recombinant barcode read abundance (log10) for AATTAAGCTTGGGTTCTAACCTGTTGCCT (site AATTCAGCTAG) fall at or above the 0.3 mark?
Result: NO

***
Query: Does the reported recombinant barcode read abundance (log10) for TGAGTACCTTGGGTTCTAACCTGTTGCTT (site TGAGTCCCTAA) fall at or above the 0.3 mark?
Result: NO

Query: Does the reported recombinant barcode read abundance (log10) for AGAGCTCCTTGGGTTCTAACCTGTTGCCG (site AGATCTCCTAG) fall at or above the 0.3 mark?
Result: YES

Query: Does the reported recombinant barcode read abundance (log10) for TCTTGGACTTGGGTTCTAACCTGTTGCTT (site TCTTGGACTGA) fall at or above the 0.3 mark?
Result: NO

Query: Does the reported recombinant barcode read abundance (log10) for TAGTCTTCTTGGGTTCTAACCTGTTGCGT (site AAGTATTCTAC) fall at or above the 0.3 mark?
Result: NO

Query: Does the reported recombinant barcode read abundance (log10) for CAGCGGCCTTGGGTTCTAACCTGTTGCCT (site CAGCGGCCTAG) fall at or above the 0.3 mark?
Result: NO

Query: Does the reported recombinant barcode read abundance (log10) for CTTCGAGCTTGGGTTCTAACCTGTTGCGG (site CTTCGAGCTCA) fall at or above the 0.3 mark?
Result: NO

Query: Does the reported recombinant barcode read abundance (log10) for TAGGACACTTGGGTTCTAACCTGTTGCCA (site TAGGACACTTG) fall at or above the 0.3 mark?
Result: YES

Query: Does the reported recombinant barcode read abundance (log10) for AAGAACTCTTGGGTTCTAACCTGTTGCCA (site AAGAACTCTTG) fall at or above the 0.3 mark?
Result: YES

Query: Does the reported recombinant barcode read abundance (log10) for CGGAGCCCTTGGGTTCTAACCTGTTGCCA (site CGGAGCCCTTG) fall at or above the 0.3 mark?
Result: YES

Query: Does the reported recombinant barcode read abundance (log10) for CGCAAGCCTTGGGTTCTAACCTGTTGCAT (site CGCAAGCCTAT) fall at or above the 0.3 mark?
Result: NO

Query: Does the reported recombinant barcode read abundance (log10) for GGTCTGCCTTGGGTTCTAACCTGTTGCCT (site GGTCTGCCTAG) fall at or above the 0.3 mark?
Result: YES
